Target: L858R/T790M/C797S EGFR (Homo sapiens, UniProt P00533, C797S/L858R/T790M)
Construct: expressed in transfected cells; host or cells: H1975 clone #25 (lentiviral over-expression, endogenous EGFR knocked out by sgRNA)
Sequence (P00533 25-1210 T790M/C797S/L858R): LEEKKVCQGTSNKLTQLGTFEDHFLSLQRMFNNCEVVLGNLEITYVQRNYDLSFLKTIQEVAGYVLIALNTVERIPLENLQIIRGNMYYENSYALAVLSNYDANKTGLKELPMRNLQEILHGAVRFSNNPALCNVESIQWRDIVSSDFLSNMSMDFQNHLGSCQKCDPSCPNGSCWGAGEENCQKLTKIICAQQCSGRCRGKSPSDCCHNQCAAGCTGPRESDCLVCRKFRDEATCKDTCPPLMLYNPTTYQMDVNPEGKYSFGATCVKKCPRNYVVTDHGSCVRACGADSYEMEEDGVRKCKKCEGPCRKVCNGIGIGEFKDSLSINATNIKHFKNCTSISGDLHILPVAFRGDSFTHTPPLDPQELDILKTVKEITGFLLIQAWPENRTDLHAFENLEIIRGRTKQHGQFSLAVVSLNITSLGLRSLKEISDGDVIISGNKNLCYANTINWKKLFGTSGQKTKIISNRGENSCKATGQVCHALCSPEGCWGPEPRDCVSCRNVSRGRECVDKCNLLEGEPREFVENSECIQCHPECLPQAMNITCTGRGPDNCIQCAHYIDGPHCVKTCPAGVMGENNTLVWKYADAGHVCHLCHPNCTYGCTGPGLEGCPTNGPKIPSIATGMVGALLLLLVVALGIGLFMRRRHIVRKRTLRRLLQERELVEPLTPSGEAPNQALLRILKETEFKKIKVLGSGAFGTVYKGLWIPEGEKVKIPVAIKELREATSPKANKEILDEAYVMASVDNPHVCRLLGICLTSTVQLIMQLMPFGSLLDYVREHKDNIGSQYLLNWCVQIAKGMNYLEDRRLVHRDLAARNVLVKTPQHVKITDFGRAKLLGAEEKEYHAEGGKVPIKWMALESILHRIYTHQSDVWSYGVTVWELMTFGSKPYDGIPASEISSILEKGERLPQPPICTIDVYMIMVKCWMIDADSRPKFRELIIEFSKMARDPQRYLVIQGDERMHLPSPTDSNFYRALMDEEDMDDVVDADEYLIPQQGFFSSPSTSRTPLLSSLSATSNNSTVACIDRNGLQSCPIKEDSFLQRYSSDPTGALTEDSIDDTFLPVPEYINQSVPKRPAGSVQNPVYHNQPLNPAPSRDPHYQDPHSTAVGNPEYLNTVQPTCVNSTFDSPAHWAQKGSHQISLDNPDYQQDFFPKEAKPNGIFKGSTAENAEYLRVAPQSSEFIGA
Assay: EGFR degradation HTRF assay in H1975-clone #25 (LTC) cells
Assay type: cell-based
Conditions: H1975 # 25-LTC (L858R/T790M/C797S), 16h treatment, HTRF
Source text: H1975-clone #28(Del19/T790M/C797S, or abbr: DTC), H1975-clone #23(Del19/C797S, or abbr: DC), H1975-clone #25(L858R/T790M/C797S, or abbr: LTC) and H1975-clone #8 (L858R/C797S, or abbr: LC). EGFR-Del19:T790M/C797S, EGFR-Del19/C797S, EGFR-L858R/T790M/C797S and EGFR-L858R/C797S were stably expressed in H1975 cell lines by lentivirus-mediated over-expression, respectively. […]
reported.metric: DC50 (nM)

Cc1cc2cc(n1)-c1cnn(C)c1OCCC[C@@H](C)CN1/C(=N/C2=O)Nc2ccc(N3CCN(C4CCN(c5cc(F)c([C@H]6CCC(=O)NC6=O)c(F)c5)CC4)[C@@H](CO)C3)cc21 [Example 421]
0.604
Cc1cc2cc(n1)-c1cnn(C)c1OCCC[C@@H](C)CN1/C(=N/C2=O)Nc2ccc(C(=O)N[C@H]3CCN(CCc4cc(F)c([C@H]5CCC(=O)NC5=O)c(F)c4)C[C@H]3F)cc21 [Example 343]
0.599
Cc1cc2cc(n1)-c1cnn(C)c1OCCC[C@@H](C)CN1/C(=N/C2=O)Nc2ccc(C(=O)N[C@@H]3CCN(CCc4cc(F)c([C@H]5CCC(=O)NC5=O)c(F)c4)C[C@@H]3F)cc21 [Example 246]
0.613

---

Target: L858R/T790M/C797S EGFR (Homo sapiens, UniProt P00533, C797S/L858R/T790M)
Construct: expressed in transfected cells; host or cells: H1975 clone #25 (lentiviral over-expression, endogenous EGFR knocked out by sgRNA)
Assay: EGFR degradation HTRF assay in H1975-clone #25 (LTC) cells
Assay type: cell-based
Details: H1975 # 25-LTC (L858R/T790M/C797S), 16h treatment, HTRF
reported.metric: DC50 (nM)

# count of solved cases: 2
Cc1cc2cc(n1)-c1cnn(C)c1OCCC[C@@H](C)CN1/C(=N/C2=O)Nc2ccc(C(=O)N[C@H](C)C3CCN(CCc4cc(F)c([C@H]5CCC(=O)NC5=O)c(F)c4)CC3)cc21 [Example 271]
0.557
Cc1cc2cc(n1)-c1cnn(C)c1OCCC[C@@H](C)CN1/C(=N/C2=O)Nc2ccc(CN3CCN(C(=O)[C@@H]4CCN(c5cc(F)c(C6CCC(=O)NC6=O)c(F)c5)C4)[C@H](C)C3)cc21 (stereo partly shown) [Example 106]
1.7

(a) Cc1cc2cc(n1)-c1cnn(C)c1OCC[C@@H]1C[C@H]1CN1/C(=N/C2=O)Nc2ccc(N3CCC(C(=O)N4CCN(c5cc(F)c([C@H]6CCC(=O)NC6=O)c(F)c5)CC4)CC3)cc21 [Example 367]
(b) Cc1cc2cc(n1)-c1cnn(C)c1OCCC[C@@H](C)CN1/C(=N/C2=O)Nc2ccc(N3CCN(C4CCN(c5ccc(C6CCC(=O)NC6=O)nc5C)CC4)[C@@H](CC#N)C3)cc21 (stereo partly shown) [Example 456]
Asked: Which has the smaller recorded DC50, a or b ? // caller expects the label of the chosen entry
Given back: b
(b: 0.676 nM, a: 1.31 nM)

---

Biological target: L858R/T790M/C797S EGFR (Homo sapiens, UniProt P00533, C797S/L858R/T790M)
Construct: expressed in transfected cells; host or cells: H1975 clone #25 (lentiviral over-expression, endogenous EGFR knocked out by sgRNA)
Assay: EGFR degradation HTRF assay in H1975-clone #25 (LTC) cells
Type: cell-based
Conditions: H1975 # 25-LTC (L858R/T790M/C797S), 16h treatment, HTRF
reported.metric: DC50 (pM)

# count of solved cases: 3
Cc1cc2cc(n1)-c1cnn(C)c1OCCC[C@@H](C)CN1/C(=N/C2=O)Nc2ccc(CN3C[C@@H]4C[C@H]3CN4C(=O)[C@H]3CN(c4cc(F)c([C@H]5CCC(=O)NC5=O)c(F)c4)CC3(C)C)cc21 [Example 185]
1040
Cc1cc2cc(n1)-c1cnn(C)c1OCCC[C@@H](C)CN1/C(=N/C2=O)Nc2ccc(C(=O)N(C)[C@H]3CCN(C4CN(c5cc(F)c([C@H]6CCC(=O)NC6=O)c(F)c5)C4)CC3(F)F)cc21 [Example 359]
841
CCN(CCN1CCN(c2cc(F)c([C@H]3CCC(=O)NC3=O)c(F)c2)CC1)C(=O)c1ccc2c(c1)N1C[C@H](C)CCCOc3c(cnn3C)-c3cc(cc(C)n3)C(=O)/N=C/1N2 [Example 281]
411

(a) Cc1cc2cc(n1)-c1cnn(C)c1OCCC[C@@H](C)CN1/C(=N/C2=O)Nc2ccc(CN3CCC4(CC3)CN(C(=O)[C@@H]3CCN(c5cc(F)c([C@H]6CCC(=O)NC6=O)c(F)c5)C3)C4)cc21 [Example 20]
(b) Cc1cc2cc(n1)-c1cnn(C)c1OCCC[C@@H](C)CN1/C(=N/C2=O)Nc2ccc(C(=O)N[C@H]3CCN(CCc4cc(F)c([C@H]5CCC(=O)NC5=O)c(F)c4)CC3(C)C)cc21 [Example 261]
(c) Cc1cc2cc(n1)-c1cnn(C)c1OCCC[C@@H](C)CN1/C(=N/C2=O)Nc2ccc(C(=O)N[C@@H]3CCN(CCc4cc(F)c([C@H]5CCC(=O)NC5=O)c(F)c4)CC3(C)C)cc21 [Example 263]
(d) Cc1cc2cc(n1)-c1cnn(C)c1OCCC[C@@H](C)CN1/C(=N/C2=O)Nc2ccc(C(=O)N(C)[C@@H](C)C3CCN(CCc4cc(F)c(C5CCC(=O)NC5=O)c(F)c4)CC3)cc21 (some centres unmarked) [Example 272]
Asked: Put the compounds in ascending order of DC50. Put the labels in the requested order and list them out.
Given back: c, b, a, d

---

Biological target: L858R/T790M/C797S EGFR (Homo sapiens, UniProt P00533, C797S/L858R/T790M)
Construct: expressed in transfected cells; host or cells: H1975 clone #25 (lentiviral over-expression, endogenous EGFR knocked out by sgRNA)
Assay: EGFR degradation HTRF assay in H1975-clone #25 (LTC) cells
Format: cell-based
Details: H1975 # 25-LTC (L858R/T790M/C797S), 16h treatment, HTRF
reported.metric: DC50 (pM)

# count of solved cases: 8
Cc1cc2cc(n1)-c1cnn(C)c1OCCC[C@@H](C)CN1/C(=N/C2=O)Nc2ccc(C(=O)OC3CCN(CCc4cc(F)c([C@H]5CCC(=O)NC5=O)c(F)c4)CC3)cc21
1250
Cc1cc2cc(n1)-c1cnn(C)c1OCCC[C@@H](C)CN1/C(=N/C2=O)Nc2ccc(C(=O)N3CC(NCCc4cc(F)c([C@H]5CCC(=O)NC5=O)c(F)c4)C3)cc21
861
Cc1cc2cc(n1)-c1cnn(C)c1OCCC[C@@H](C)CN1/C(=N/C2=O)Nc2ccc(C(=O)N(C)CCCCc3cc(F)c([C@H]4CCC(=O)NC4=O)c(F)c3)cc21
865
Cc1cc2cc(n1)-c1cnn(C)c1OCCC[C@@H](C)CN1/C(=N/C2=O)Nc2ccc(C(=O)N(C)[C@@H]3CCN(CCNc4cc(F)c([C@H]5CCC(=O)NC5=O)c(F)c4)C[C@@H]3F)cc21
614
Cc1cc2cc(n1)-c1cnn(C)c1OCCC[C@@H](C)CN1/C(=N/C2=O)Nc2ccc(N3CCN(C4CCN(c5cc(F)c([C@H]6CCC(=O)NC6=O)c(F)c5)CC4)CC3=O)cc21
591
Cc1cc2cc(n1)-c1cnn(C)c1OCCC[C@@H](C)CN1/C(=N/C2=O)Nc2ccc(N3C[C@@H](C)N(C4CCN(c5cc(F)c([C@H]6CCC(=O)NC6=O)c(F)c5)CC4)C[C@H]3C)cc21
4700
Cc1cc2cc(n1)-c1cnn(C)c1OCCC[C@@H](C)CN1/C(=N/C2=O)Nc2ccc(CN3CCN(C(=O)C4CCN(c5cc(F)c([C@H]6CCC(=O)NC6=O)c(F)c5)CC4)CC3)cc21
598
CCN(C(=O)c1ccc2c(c1)N1C[C@H](C)CCCOc3c(cnn3C)-c3cc(cc(C)n3)C(=O)/N=C/1N2)C1CCN(CCc2cc(F)c([C@H]3CCC(=O)NC3=O)c(F)c2)CC1
403

(P) Cc1cc2cc(n1)-c1cnn(C)c1OCCC[C@@H](C)CN1/C(=N/C2=O)Nc2ccc(C(=O)N(C)[C@@H]3CCN(CCc4cc(F)c([C@H]5CCC(=O)NC5=O)c(F)c4)C[C@H]3F)cc21
(Q) Cc1cc2cc(n1)-c1cnn(C)c1OCCC[C@@H](C)CN1/C(=N/C2=O)Nc2ccc(CN3CCN(C(=O)[C@@H]4CCN(c5cc(F)c([C@H]6CCC(=O)NC6=O)c(F)c5)C4)CC3)c(F)c21
(R) Cc1cc2cc(n1)-c1cnn(C)c1OCCC[C@@H](C)CN1/C(=N/C2=O)Nc2ccc(CN3CCC4(CC3)CCN(C(=O)[C@@H]3CCN(c5cc(F)c([C@H]6CCC(=O)NC6=O)c(F)c5)C3)CC4)cc21
Asked: Put the compounds in ascending order of DC50. Put the labels in the requested order and list them out.
Given back: P, R, Q
(P: 526 pM, R: 800 pM, Q: 2920 pM)
